species on record: Rattus norvegicus; assay: Open TG-GATES - Regimen: Daily Repeat; assay type: toxicity, organism-based, Sprague-Dawley; parameters: regimen Daily Repeat, gender Male, age 6 weeks; details: in vivo, po, 0 mg/kg, […], tissue Kidney, route gavage, dose level Control, time 14 day
recordedEndpoint: KIDNEY_L (g)
Numbers only, in g.

O=C1NC(=O)C(c2ccccc2)(c2ccccc2)N1 [PHENYTOIN]	1.2
COc1ccc(Cl)cc1C(=O)NCCc1ccc(S(=O)(=O)NC(=O)NC2CCCCC2)cc1 [GLYBURIDE]	1.2
CS(=O)(=O)Nc1ccc([N+](=O)[O-])cc1Oc1ccccc1 [NIMESULIDE]	1.4
Cn1c(=O)c2c(ncn2C)n(C)c1=O [CAFFEINE]	1.2
COc1ccc(O)c(C(C)(C)C)c1.COc1ccc(O)cc1C(C)(C)C [BUTYLATED HYDROXYANISOLE]	1.2

Your task in this section: give KIDNEY_L for each listed record.
1. Cc1cccc(Nc2cc(Cl)nc(SCC(=O)O)n2)c1C [PIRINIXIC ACID]
2. Cc1cnc(NC(=O)C2=C(O)c3ccccc3S(=O)(=O)N2C)s1 [MELOXICAM]
3. Cn1cnc([N+](=O)[O-])c1Sc1ncnc2nc[nH]c12 [AZATHIOPRINE]
4. O=C1CN(/N=C/c2ccc(-c3ccc([N+](=O)[O-])cc3)o2)C(O)=N1 [DANTROLENE]
5. O=P1(N(CCCl)CCCl)NCCCO1 (stereo unspecified) [CYCLOPHOSPHAMIDE ANHYDROUS]

# output
[1.2, 1.2, 1.1, 1.2, 1.2]

# input For the compound C=CCO [ALLYL ALCOHOL] , give its measured KIDNEY_L value.
# output 1.2

====

organism: Rattus norvegicus; test: Open TG-GATES - Regimen: Daily Repeat; assay type: toxicity, organism-based, Sprague-Dawley; parameters: regimen Daily Repeat, gender Male, age 6 weeks; details: in vivo, po, 0 mg/kg, […], tissue Kidney, route gavage, dose level Control, time 28 day
recordedEndpoint: KIDNEY_R (g)
One number for each entry, in g.

Illustrative cases are given below, each with its answer.
Cn1cnc([N+](=O)[O-])c1Sc1ncnc2nc[nH]c12 [AZATHIOPRINE]	1.2
Cc1cccc(Nc2cc(Cl)nc(SCC(=O)O)n2)c1C [PIRINIXIC ACID]	1.3
O=P1(N(CCCl)CCCl)NCCCO1 (stereo unspecified) [CYCLOPHOSPHAMIDE ANHYDROUS]	1.3
COc1ccc(O)c(C(C)(C)C)c1.COc1ccc(O)cc1C(C)(C)C [BUTYLATED HYDROXYANISOLE]	1.3
COc1ccc(Cl)cc1C(=O)NCCc1ccc(S(=O)(=O)NC(=O)NC2CCCCC2)cc1 [GLYBURIDE]	1.4
CS(=O)(=O)Nc1ccc([N+](=O)[O-])cc1Oc1ccccc1 [NIMESULIDE]	1.4
C=CCO [ALLYL ALCOHOL]	1.3
Cn1c(=O)c2c(ncn2C)n(C)c1=O [CAFFEINE]	1.5

Could you tell me KIDNEY_R for each of these compounds? They are listed below.
1. O=C1CN(/N=C/c2ccc(-c3ccc([N+](=O)[O-])cc3)o2)C(O)=N1 [DANTROLENE]
2. Cc1cnc(NC(=O)C2=C(O)c3ccccc3S(=O)(=O)N2C)s1 [MELOXICAM]
3. O=C1NC(=O)C(c2ccccc2)(c2ccccc2)N1 [PHENYTOIN]

# output
[1.3, 1.3, 1.3]
